For each of the molecules below, state its melting point.

Known results for molecules:
# molecule, melting point
records = [
    ("O=c1c(C2=Nc3ccccc3S(=O)(=O)N2)c(O)c2ccccc2n1CC1CCCCC1", "232 to 235 °C"),
    ("CC(Br)CCn1c(=O)c(C2=Nc3ccccc3S(=O)(=O)N2)c(O)c2ccccc21 (stereo not drawn)", "190 to 194.5 °C (dec.)"),
    ("CC(C)=CCn1c(=O)c(C2=Nc3ccccc3S(=O)(=O)N2)c(O)c2ccccc21", "249.1 to 251.1 °C"),
]

// input: 3 molecules below; output: melting point for each
1. O=c1c(C2=Nc3ccccc3S(=O)(=O)N2)c(O)c2ccccc2n1CCCCO
2. O=c1c(C2=Nc3ccccc3S(=O)(=O)N2)c(O)c2ccccc2n1CCCC(F)(F)F
3. O=c1c(C2=NS(=O)(=O)c3cc(I)ccc3N2)c(O)c2ccccc2n1CCC1CC1

Found:
["238.4 to 239.6 °C", "248.9 to 250 °C", "234 to 236 °C"]
